Provide the recorded EC50 for the entries that follow.
Biological target: full-length HAQ STING (Homo sapiens, UniProt Q86WV6, G230A/H232R/R293Q/R71H)
Construct: Full-Length HAQ STING [STING(1-379)R71H, G230A, H232R,; membrane preparation
Sequence (Q86WV6 with tags, fused parts or gaps R71H/G230A/H232R/R293Q): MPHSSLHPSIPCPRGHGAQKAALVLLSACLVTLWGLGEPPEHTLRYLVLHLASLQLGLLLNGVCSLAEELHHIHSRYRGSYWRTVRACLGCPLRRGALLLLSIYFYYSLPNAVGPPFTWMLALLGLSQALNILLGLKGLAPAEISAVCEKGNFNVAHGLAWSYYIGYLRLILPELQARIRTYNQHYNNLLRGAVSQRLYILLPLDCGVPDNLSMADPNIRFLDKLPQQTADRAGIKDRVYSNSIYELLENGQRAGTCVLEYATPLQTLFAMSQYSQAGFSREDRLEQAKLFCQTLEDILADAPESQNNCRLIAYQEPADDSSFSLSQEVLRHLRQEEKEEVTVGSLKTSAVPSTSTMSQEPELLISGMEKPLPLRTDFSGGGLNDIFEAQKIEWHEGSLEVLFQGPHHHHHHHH
Assay: 3H-cGAMP filtration binding assay (HAQ STING)
Conditions: 3H-cGAMP filtration binding assay for HAQ STING; competition with tritiated cGAMP

| compound | EC50 |
| --- | --- |
| Nc1nc2c(nnn2[C@@H]2O[C@@H]3COP(=O)(S)O[C@H]4C[C@H](n5ccc6c(N)ncnc65)O[C@@H]4COP(=O)(S)O[C@H]2[C@@H]3F)c(=O)[nH]1 (single isomer, unassigned) [Example 26] | 5.62 nM |
| Nc1nc2c(nnn2[C@@H]2O[C@@H]3COP(=O)(S)O[C@H]4C[C@H](n5ccc6c(N)ncnc65)O[C@@H]4COP(=O)(S)O[C@H]2[C@@H]3F)c(=O)[nH]1 (single isomer, unassigned) [Example 25] | 99.9 nM |
| Nc1nc2c(ncn2[C@@H]2O[C@@H]3COP(=O)(S)O[C@H]4[C@H](F)[C@H](n5nnc6c(N)ncnc65)O[C@@H]4COP(=O)(S)O[C@H]2C3)c(=O)[nH]1 (single isomer, unassigned) [Example 7] | 3670 nM |

Would you kindly look at the next entry?
Param item: Nc1nc2c(ncn2[C@@H]2O[C@@H]3COP(=O)(S)O[C@H]4[C@H](F)[C@H](n5nnc6c(N)ncnc65)O[C@@H]4COP(=O)(S)O[C@H]2C3)c(=O)[nH]1 (single isomer, unassigned) [Example 8] ; param system: full-length HAQ STING (Homo sapiens, UniProt Q86WV6, G230A/H232R/R293Q/R71H); output EC50: 26 nM
